# Tested on: 349418-098-R-PDC complex spheroid viability
# assay-notes: Anticancer human tumor 349418-098-R-PDC patient-derived lung adenocarcinoma cell line growth inhibition; active = viability on the fitted dose curve at most 10% of control; inactive = the rest
# cond: second compound 3.16 µM; first compound 0.0949 µM
Choose the fitting class; nothing outside active, inactive is accepted.

CCc1c2c(nc3ccc(O)cc13)-c1cc3c(c(=O)n1C2)COC(=O)[C@]3(O)CC + NC1CC1c1ccc(-c2cccc(O)c2)cc1    active
Nc1ccccc1NC(=O)c1ccc(CNC(=O)OCc2cccnc2)cc1 + NC1CC1c1ccc(-c2cccc(O)c2)cc1    inactive

Please indicate how the test categorized Nc1ncn(C2CC(O)C(CO)S2)c(=O)n1 (stereo not given) + NC1CC1c1ccc(-c2cccc(O)c2)cc1 .
inactive

Request: CCN(c1cc(-c2ccc(CN3CCOCC3)cc2)cc(C(=O)NCc2c(C)cc(C)[nH]c2=O)c1C)C1CCOCC1 + NC1CCC(NC2CC2c2ccccc2)CC1
inactive

Request: Nc1ccn(C2OC(CO)C(O)C2(F)F)c(=O)n1 (stereo not given) + NC1CC1c1ccc(-c2cccc(O)c2)cc1
active

Request: Nc1ncn(C2CC(O)C(CO)S2)c(=O)n1 (stereo not given) + NC1CCC(NC2CC2c2ccccc2)CC1
inactive

Request: NS(=O)(=O)OCC1CC(n2ccc3c(NC4CCc5ccccc54)ncnc32)CC1O (stereo not given) + NC1CCC(NC2CC2c2ccccc2)CC1
inactive

Request: O=C(C=Cc1cccc(S(=O)(=O)Nc2ccccc2)c1)NO + NC1CC1c1ccc(-c2cccc(O)c2)cc1
inactive

Request: COc1cc(C2c3cc4c(cc3C(OC3OC5COC(C)OC5C(O)C3O)C3COC(=O)C23)OCO4)cc(OC)c1O (stereo not given) + NC1CCC(NC2CC2c2ccccc2)CC1
inactive

Request: CCN(c1cc(-c2ccc(CN3CCOCC3)cc2)cc(C(=O)NCc2c(C)cc(C)[nH]c2=O)c1C)C1CCOCC1 + NC1CC1c1ccc(-c2cccc(O)c2)cc1
inactive

###

# Tested on: 349418-098-R-PDC complex spheroid viability
# assay-notes: Anticancer human tumor 349418-098-R-PDC cell line growth inhibition; active = viability on the fitted dose curve at most 10% of control; inactive = the rest;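 also: spheroids exposed to agents for seven days before readout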
# cond: second compound 3.16 µM; first compound 0.00316 µM
Choose the fitting class; nothing outside active, inactive is accepted.

Use the examples below as a reference point.
Nc1ncn(C2CC(O)C(CO)O2)c(=O)n1 (centres undefined) + NC1CCC(NC2CC2c2ccccc2)CC1    inactive
COc1cc(Nc2ncc3c(n2)-c2ccc(Cl)cc2C(c2c(F)cccc2OC)=NC3)ccc1C(=O)O + NC1CCC(NC2CC2c2ccccc2)CC1    inactive
CC(C)CC(NC(=O)C(Cc1ccccc1)NC(=O)c1cnccn1)B(O)O (centres undefined) + NC1CC1c1ccc(-c2cccc(O)c2)cc1    active
CC[C@@]1(O)C(=O)OCc2c1cc1n(c2=O)Cc2cc3c(CN(C)C)c(O)ccc3nc2-1 + NC1CC1c1ccc(-c2cccc(O)c2)cc1    inactive
Nc1ncn(C2CC(O)C(CO)O2)c(=O)n1 (centres undefined) + NC1CC1c1ccc(-c2cccc(O)c2)cc1    inactive

Please indicate how the test categorized COc1cc(Nc2ncc3c(n2)-c2ccc(Cl)cc2C(c2c(F)cccc2OC)=NC3)ccc1C(=O)O + NC1CC1c1ccc(-c2cccc(O)c2)cc1 .
inactive

Request: Cn1ncnc1C1c2n[nH]c(=O)c3cc(F)cc(c23)NC1c1ccc(F)cc1 (centres undefined) + NC1CCC(NC2CC2c2ccccc2)CC1
inactive

Request: CC1COCCN1c1cc(-c2ccnn2C)c2ccnc(-c3ccn[nH]3)c2n1 (centres undefined) + NC1CC1c1ccc(-c2cccc(O)c2)cc1
inactive

Request: CC(C)CC(NC(=O)C(Cc1ccccc1)NC(=O)c1cnccn1)B(O)O (centres undefined) + NC1CCC(NC2CC2c2ccccc2)CC1
active
